Biological target: GSK-3β (Homo sapiens)
Assay: Assay for GSK-3β inhibiting activity (32P-ATP, phospho-CREB peptide substrate, filter paper, CPM)
Assay type: biochemical
Conditions: GSK-3β inhibiting activity; 100 nM GSK-3β protein, 100 μM phospho-CREB peptide, 100 μM ATP, 30° C. for 1 hour; read-out: IC50
Experimental: Assay for GSK-3β inhibiting activity […] The reaction was stopped by adding 5 μl of 5% phosphoric acid to 25 μl of the resulting solution. […] The filter paper was further washed 3 times and the enzymatic activity was determined by examining the extent of phospho-CREB peptide phosphorylation which is represented by the unit of count per minute (CPM), measured with a β-counter (Packard, USA). The GSK-3β inhibiting activity was then calculated in accordance with the following equation: […]
pIC50: −log10 of the molar value.

molecule: Cc1cn(CCCNC(=O)c2ccc(O)c3[nH]c(-c4ccc(F)cc4Cl)nc23)cn1 [Compound 199]
readoutQualifier: =
pIC50: 8.00

molecule: O=C(Nc1ccc(CCN2C(=O)c3ccccc3C2=O)cc1)c1ccc(O)c2[nH]c(-c3ccc(Cl)cc3Cl)nc12 [Compound 30]
readoutQualifier: <
pIC50: 6.00

molecule: Cc1ccc(S(=O)(=O)NCCc2ccc(NC(=O)c3ccc(O)c4[nH]c(-c5ccccc5)nc34)cc2)cc1 [Compound 9]
readoutQualifier: =
pIC50: 6.74

molecule: O=C(NCCCn1cnc(Cl)c1Cl)c1ccc(O)c2[nH]c(-c3ccc(NCCN4CCOCC4)cc3)nc12 [Compound 204]
readoutQualifier: <
pIC50: 5.30

molecule: O=C(NCCCn1cnc(Cl)c1Cl)c1ccc(O)c2nc(-c3ccc(Cl)cc3Cl)[nH]c12 [Compound 182]
readoutQualifier: =
pIC50: 8.10

molecule: O=C(Nc1ccc(CCN2C(=O)c3ccccc3C2=O)cc1)c1ccc(O)c2[nH]c(-c3ccc(Cl)cc3)nc12 [Compound 18]
readoutQualifier: <
pIC50: 6.00

molecule: CCS(=O)(=O)Nc1ccc(CCNC(=O)c2ccc(O)c3[nH]c(-c4ccc(F)cc4)nc23)cc1 [Compound 116]
readoutQualifier: =
pIC50: 8.52

molecule: O=C(NCCCn1ccnc1-c1ccccc1)c1ccc(O)c2[nH]c(-c3ccc(Cl)cc3Cl)nc12 [Compound 180]
readoutQualifier: =
pIC50: 6.68

molecule: COc1ccc(CCNC(=O)c2ccc(O)c3[nH]c(-c4ccccc4)nc23)cc1O [Compound 63]
readoutQualifier: =
pIC50: 6.35

molecule: O=C(NCCCn1cnc(Cl)c1Cl)c1ccc(O)c2[nH]c(-c3ccc(F)cc3F)nc12 [Compound 197]
readoutQualifier: =
pIC50: 8.52

molecule: CN1CCN(CC(=O)Nc2ccc(CCNC(=O)c3ccc(O)c4[nH]c(-c5ccc(Cl)cc5)nc34)cc2)CC1 [Compound 86]
readoutQualifier: =
pIC50: 6.60

molecule: O=C(Nc1ccc(CCN2C(=O)c3ccccc3C2=O)cc1)c1ccc(O)c2[nH]c(-c3ccccc3)nc12 [Compound 11]
readoutQualifier: <
pIC50: 5.30

molecule: O=C(NCc1ccc([N+](=O)[O-])cc1)c1ccc(O)c2[nH]c(-c3ccccc3)nc12 [Compound 49]
readoutQualifier: =
pIC50: 6.22

molecule: O=C(NCCNc1ccc([N+](=O)[O-])cn1)c1ccc(O)c2[nH]c(-c3ccc(Cl)cc3)nc12 [Compound 81]
readoutQualifier: <
pIC50: 6.00

molecule: O=C(NCCc1ccc(O)cc1)c1ccc(O)c2[nH]c(-c3ccc(Cl)cc3)nc12 [Compound 74]
readoutQualifier: <
pIC50: 6.00

molecule: Cc1ccc(S(=O)(=O)NCCc2ccc(NC(=O)c3ccc(O)c4[nH]c(-c5ccc(F)cc5)nc34)cc2)cc1 [Compound 34]
readoutQualifier: <
pIC50: 6.00

molecule: CCCCC(=O)Nc1ccc(CCNC(=O)c2ccc(O)c3[nH]c(-c4ccc(Cl)cc4Cl)nc23)cc1 [Compound 113]
readoutQualifier: =
pIC50: 6.72

molecule: NCCCNC(=O)c1ccc(O)c2[nH]c(-c3ccccc3)nc12 [Compound 163]
readoutQualifier: <
pIC50: 6.00

molecule: O=C(NCCc1ccc([N+](=O)[O-])cc1)c1ccc(O)c2[nH]c(-c3ccc(Cl)cc3Cl)nc12 [Compound 100]
readoutQualifier: =
pIC50: 6.70

---

Target: GSK-3β (Homo sapiens, UniProt P49841)
Sequence (P49841 whole entry): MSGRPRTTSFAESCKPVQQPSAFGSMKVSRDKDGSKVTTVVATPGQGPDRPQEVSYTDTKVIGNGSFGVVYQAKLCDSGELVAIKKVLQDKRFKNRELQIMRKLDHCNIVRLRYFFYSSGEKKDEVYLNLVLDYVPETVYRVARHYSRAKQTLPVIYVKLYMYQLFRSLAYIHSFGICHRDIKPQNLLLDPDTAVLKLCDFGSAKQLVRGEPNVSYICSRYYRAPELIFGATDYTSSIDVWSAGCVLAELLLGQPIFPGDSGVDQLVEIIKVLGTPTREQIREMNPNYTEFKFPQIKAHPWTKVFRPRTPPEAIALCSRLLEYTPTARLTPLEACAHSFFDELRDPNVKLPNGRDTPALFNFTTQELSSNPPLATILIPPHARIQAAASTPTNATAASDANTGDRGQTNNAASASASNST
Assay: Assay for GSK-3β inhibiting activity (32P-ATP, phospho-CREB peptide substrate, filter paper, CPM)
Format: biochemical
Conditions: GSK-3β inhibiting activity; 100 nM GSK-3β protein, 100 μM phospho-CREB peptide, 100 μM ATP, 30° C. for 1 hour; read-out: IC50
pIC50: −log10 of the molar value.

molecule: O=C(Nc1ccc(CO)cc1)c1ccc(O)c2[nH]c(-c3ccc(Cl)cc3Cl)nc12
readoutQualifier: <
pIC50: 6.00
//
molecule: O=C(NCCc1ccccn1)c1ccc(O)c2[nH]c(-c3ccc(Cl)cc3Cl)nc12
readoutQualifier: <
pIC50: 6.00
//
molecule: CC(=O)Nc1ccc(CCNC(=O)c2ccc(O)c3[nH]c(-c4ccc(F)cc4Cl)nc23)cc1
readoutQualifier: =
pIC50: 7.15
//
molecule: Cc1nccn1CCCNC(=O)c1ccc(O)c2[nH]c(-c3ccccc3)nc12
readoutQualifier: =
pIC50: 7.00
//
molecule: CCS(=O)(=O)NCCc1ccc(NC(=O)c2ccc(O)c3[nH]c(-c4ccc(Cl)cc4)nc23)cc1
readoutQualifier: =
pIC50: 5.39
//
molecule: O=C(NCCCN1CCCC1=O)c1ccc(O)c2[nH]c(-c3ccc(Cl)cc3Cl)nc12
readoutQualifier: =
pIC50: 6.70
//
molecule: O=C(NC1CCC(O)CC1)c1ccc(O)c2[nH]c(-c3ccc(Cl)cc3Cl)nc12 (stereo not shown)
readoutQualifier: =
pIC50: 6.17
//
molecule: O=C(NCCN1CCOCC1)c1ccc(O)c2[nH]c(-c3ccc(Cl)cc3)nc12
readoutQualifier: <
pIC50: 6.00
//
molecule: CCN(CC)CC(=O)Nc1ccc(CCNC(=O)c2ccc(O)c3[nH]c(-c4ccc(F)cc4Cl)nc23)cc1
readoutQualifier: =
pIC50: 6.17
//
molecule: Nc1ccc(CCNC(=O)c2ccc(O)c3[nH]c(-c4ccc(Cl)cc4)nc23)cc1 [Compound 90]
readoutQualifier: =
pIC50: 6.89
//
molecule: Nc1ccc(CCNC(=O)c2ccc(O)c3nc(-c4ccccc4)[nH]c23)cc1
readoutQualifier: =
pIC50: 6.46
//
molecule: O=C(NC1CCC(O)CC1)c1ccc(O)c2[nH]c(-c3ccc(Cl)cc3)nc12 (stereo not shown)
readoutQualifier: =
pIC50: 6.96
//
molecule: CCS(=O)(=O)NCCc1ccc(NC(=O)c2ccc(O)c3[nH]c(-c4ccc(F)c(Cl)c4)nc23)cc1
readoutQualifier: <
pIC50: 6.00

---

Here the recorded pIC50 is given for each entry.
Molecular target: UniProt:P49841
Experiment: Assay for GSK-3β inhibiting activity (32P-ATP, phospho-CREB peptide substrate, filter paper, CPM)
Format: biochemical
Details: GSK-3β inhibiting activity; 100 nM GSK-3β protein, 100 μM phospho-CREB peptide, 100 μM ATP, 30° C. for 1 hour; read-out: IC50
pIC50: −log10 of the molar value.
resultType: pIC50

structureSmilesString: O=C(Nc1ccc(CCNS(=O)(=O)c2cccs2)cc1)c1ccc(O)c2[nH]c(-c3ccc(Cl)cc3)nc12
result: < 6.00

structureSmilesString: O=C(NCCN1CCOCC1)c1ccc(O)c2[nH]c(-c3ccc(F)cc3)nc12
result: < 5.30

structureSmilesString: Cc1ccc(S(=O)(=O)NCCc2ccc(NC(=O)c3ccc(O)c4[nH]c(-c5ccc(F)cc5Cl)nc34)cc2)cc1
result: < 6.00

structureSmilesString: COc1cc(CCNC(=O)c2ccc(O)c3[nH]c(-c4ccccc4)nc23)ccc1O
result: < 6.00

structureSmilesString: COc1ccccc1CCNC(=O)c1ccc(O)c2[nH]c(-c3ccc(F)cc3)nc12
result: < 6.00

structureSmilesString: O=C(NCCc1ccccc1)c1ccc(O)c2[nH]c(-c3ccc(Cl)cc3)nc12
result: < 6.00

structureSmilesString: O=C(NCCNc1ccc([N+](=O)[O-])cn1)c1ccc(O)c2[nH]c(-c3ccccc3)nc12
result: < 6.00

structureSmilesString: O=C(NCCc1ccccn1)c1ccc(O)c2[nH]c(-c3ccc(Cl)cc3)nc12
result: < 6.00

structureSmilesString: CS(=O)(=O)NCCc1ccc(NC(=O)c2ccc(O)c3[nH]c(-c4ccc(F)cc4)nc23)cc1
result: < 6.00

structureSmilesString: O=C(c1ccc(O)c2[nH]c(-c3ccc(Cl)cc3Cl)nc12)N1CCCCC1
result: < 5.30
